Numbers sourced from patent US11072602B2.

test.target: human GPR40 (Homo sapiens, UniProt O14842)
Construct: expressed in transfected cells
Sequence (O14842 whole entry): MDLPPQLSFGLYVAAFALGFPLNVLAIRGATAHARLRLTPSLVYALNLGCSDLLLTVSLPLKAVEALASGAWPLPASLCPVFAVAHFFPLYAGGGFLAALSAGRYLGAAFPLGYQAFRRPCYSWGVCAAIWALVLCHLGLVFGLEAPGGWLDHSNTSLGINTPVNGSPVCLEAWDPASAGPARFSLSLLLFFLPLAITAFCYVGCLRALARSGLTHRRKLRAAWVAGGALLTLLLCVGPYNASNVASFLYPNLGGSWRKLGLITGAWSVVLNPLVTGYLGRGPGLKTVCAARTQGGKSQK
experiment.notes: Inositol Phosphate Turnover (IP1) Assay
Format: cell-based
test.parameters: HEK cells stably expressing human GPR40, 7500 cells per well, CisBio IP-One kit
EC50 overview
Numeric answer only, unit nM assumed.

Study these solved cases before continuing.
C[C@H](C(=O)O)[C@H](c1ccc2c(c1)OC(C1CC3CC1CN3[C@H](C)c1cc(F)ccc1C(F)(F)F)CC2)C1CC1 (single isomer, unassigned) [Example 21] :: 3.14
C[C@H](C(=O)O)[C@H](c1ccc2c(c1)OC(C1CC3CCCC(C1)N3[C@H](C)c1cc(C(F)(F)F)ccc1C(F)(F)F)CC2)C1CC1 (mixture of isomers) :: 171
C[C@H](C(=O)O)[C@H](c1ccc2c(c1)OC(C1CC3CC1CN3[C@H](C)c1cc(F)ccc1C(F)(F)F)CC2)C1CC1 (single isomer, unassigned) [Example 20] :: 13.4
CC(C(=O)O)C(c1ccc2c(c1)OC(C1CC3CCCC(C1)N3C(C)c1cc(F)ccc1C(F)(F)F)CC2)C1CC1 (single isomer, unassigned) [Example 34] :: 29.4

Now let's try a different one.
Record request: EC50 value, item C[C@H](C(=O)O)[C@H](c1ccc2c(c1)OC(C1CC3CCC(C1)N3[C@H](C)c1cc(F)ccc1C(F)(F)F)CC2)C1CC1 (some centres unmarked)
17.5

====

Entries and their measured EC50 follow.
test.target: human GPR40 (Homo sapiens)
Construct: expressed in transfected cells
experiment.notes: Inositol Phosphate Turnover (IP1) Assay 2
Format: cell-based
test.parameters: HEK cells stably expressing human GPR40, 15,000 cells per well, CisBio IP-One kit; read-out: Human IP1 (nM); Inositol Phophate Turnover (IP1) Assay 2 EC50 values
Protocol: Human GPR40 stable cell-lines were generated in HEK cells. The expression plasmids were transfected using lipofectamine (Life Technologies) following manufacturer's instructions. Stable cell-lines were generated following drug selection and single cell cloning. […] Measurement of Inositol Phosphate Turnover (IP1) is performed using the CisBio IP-One kit (Part number 62IPAPEB). […] The plates are then read in a Perkin Elmer EnVision or equivalent reader able to measure FRET. […]
Reply with the number, then its unit.

Example results:
C[C@H](C(=O)O)[C@H](c1ccc2c(c1)OC(C1CC3(C1)CN(c1ncccc1C(F)(F)F)C3)CC2)C1CC1 (single isomer, unassigned) [Example 2] :: 156 nM
C[C@H](C(=O)O)[C@H](c1ccc2c(c1)OC(C1CC3(C1)CN(c1ncccc1C(F)(F)F)C3)CC2)C1CC1 (single isomer, unassigned) [Example 1] :: 141 nM

Let us move to another entry and its EC50.
Query (compound): C[C@H](C(=O)O)[C@H](c1ccc2c(c1)OC(C1[C@@H]3COC[C@H]1CN(Cc1cc(C(F)(F)F)ccc1C(F)(F)F)C3)CC2)C1CC1 (stereo partly drawn) [Example 40] ; field requested: EC50
38.5 nM
